Residues, ends and D or L forms follow the SMILES beside them. *: point of attachment. Cbz = O=C(OCc1ccccc1)*; NHPr = CCCN*
measurement_name: melting point

Request: Which value of melting point has been reported for Nc1nc(-c2cccc(C(F)(F)F)c2)nc2nc(-c3ccco3)nn12 in the records?
Result: 296 to 298 °C

Request: // melting point lookup, key: O=c1nc(-c2ccccc2)c2cc([N+](=O)[O-])ccc2n1Cc1ccccn1
Result: 175 to 176 °C

Request: Any idea what melting point was measured for C=C(C)C1=CC(C)(C)Oc2c(OCC)cc(Cc3cnc(N)nc3N)cc21 ?
Result: 188 to 189 °C

Request: What measured melting point goes with CCCNC(=O)C1CCCN1C(=O)C(C)NC(=O)OCc1ccccc1 (stereo not drawn) (Cbz-Ala-Pro-NHPr; configuration not given here) ?
Result: 117 to 120 °C

Request: Bench note: what melting point did Clc1cccc2[nH]c3c4ccccc4nc-3c(Cl)c12 show?
Result: 275 to 277 °C

Request: // melting point lookup, key: CC(C)=CCc1c(O)cc(O)cc1-c1cc2ccc(O)cc2o1
Result: 82 to 83 °C

Request: What does the record list as melting point for CC(C)(Br)C(=O)NCc1ccccc1 ?
Result: 73.4 to 75.5 °C

Request: melting point lookup needed for N#CCCN1CCC(C2c3ccccc3C=Cc3ccccc32)CC1 , thanks.
Result: 165 to 168 °C

Request: Dear colleague, I am looking for the recorded melting point of the following molecule: CN(C)C1=C(Cl)C(=O)NC1=Nc1ccccc1
Result: 135 to 138 °C

Request: Fill blank: measured melting point of the molecule NS(=O)(=O)c1ccc(-c2cn(-c3nc(-c4ccc(Cl)c(Cl)c4)cc(C(F)(F)F)n3)cn2)cc1 is ____.
Result: 334 °C
